Tested on: Plasmodium falciparum
Assay: Antimalarial activity against chloroquine-sensitive asexual blood stage of Plasmodium falciparum 3D7 infected in RBC after 72 hrs by SYBR Green assay
Assay type: functional, organism-based
Experimental context: 3D7, 72 h
As shown below, each of these molecules has a reported pIC50 value.
Reminder that pIC50 means the negative base-10 logarithm of the concentration expressed in mol/L.

{"Item smiles": "O=c1[nH]c2cnc3ccccc3c2n1-c1cccc(C(F)(F)F)c1", "pIC50": 5.30}
{"Item smiles": "O=c1[nH]c2cnc3ccc(-c4ccc5[nH]cnc5c4)cc3c2n1-c1cccc(C(F)(F)F)c1", "pIC50": 6.67}
{"Item smiles": "Cc1ccc(-c2ccc3ncc4c(c3c2)n(-c2cccc(C(F)(F)F)c2)c(=O)n4C)cc1", "pIC50": 6.13}
{"Item smiles": "Cn1c(=O)n(C2CCCCC2)c2c3cc(-c4ccc(N)nc4)ccc3ncc21", "pIC50": 6.08}
{"Item smiles": "Cn1c(=O)n(-c2cccc(C(F)(F)F)c2)c2c3cc(-c4ccc(C#N)cc4)ccc3ncc21", "pIC50": 5.13}
{"Item smiles": "Cn1c(=O)n(-c2cccc(C(F)(F)F)c2)c2c3cc(-c4ccc(S(N)(=O)=O)cc4)ccc3ncc21", "pIC50": 6.34}
{"Item smiles": "CC(=O)Nc1ccc(-c2ccc3ncc4[nH]c(=O)n(-c5cccc(C(F)(F)F)c5)c4c3c2)cn1", "pIC50": 7.09}
{"Item smiles": "Cn1c(=O)n(-c2cccc(C(F)(F)F)c2)c2c3cc(-c4cnc5ccccc5c4)ccc3ncc21", "pIC50": 5.24}
{"Item smiles": "Cn1c(=O)n(-c2cccc(C(F)(F)F)c2)c2c3cc(-c4ccc5[nH]cnc5c4)ccc3ncc21", "pIC50": 7.19}
{"Item smiles": "Nc1ccc(-c2ccc3ncc4[nH]c(=O)n(-c5cccc(C(F)(F)F)c5)c4c3c2)cn1", "pIC50": 7.04}

Enquiry: Tell me the measured pIC50 of CCn1c(=O)n(-c2cccc(C(F)(F)F)c2)c2c3cc(-c4ccc(Cl)cc4)ccc3ncc21 , please.
Return: 5.41

Enquiry: Tell me the measured pIC50 of O=c1[nH]c2cnc3ccc(-c4cccnc4)cc3c2n1-c1cccc(C(F)(F)F)c1 , please.
Return: 5.55

Enquiry: Tell me the measured pIC50 of Cn1c(=O)n(-c2ccc(C#N)cc2)c2c3cc(-c4ccc(N)nc4)ccc3ncc21 , please.
Return: 7.01

Enquiry: Tell me the measured pIC50 of O=c1[nH]c2cnc3ccc(-c4ccncc4)cc3c2n1-c1cccc(C(F)(F)F)c1 , please.
Return: 6.50

Enquiry: Tell me the measured pIC50 of N#Cc1ccc(-n2c(=O)[nH]c3cnc4ccc(-c5ccc(N)nc5)cc4c32)cc1 , please.
Return: 6.41

Enquiry: Tell me the measured pIC50 of Cn1c(=O)n(-c2cccc(C(F)(F)F)c2)c2c3cc(-c4cccc(C#N)c4)ccc3ncc21 , please.
Return: 6.74

----------
System: Plasmodium falciparum
Assay: Antimalarial activity against chloroquine-sensitive asexual blood stage of Plasmodium falciparum 3D7 infected in RBC after 72 hrs by SYBR Green assay
Assay type: functional, organism-based
Experimental context: 3D7, 72 h
As shown below, each of these molecules has a reported IC50 value.
Output spec: scalar in nM, unitless text.

Example entries and their recorded answers appear below.
{"Item smiles": "CS(=O)(=O)c1ccc(-c2ccc3ncc4[nH]c(=O)n(-c5cccc(C(F)(F)F)c5)c4c3c2)cc1", "System under test": "Plasmodium falciparum", "Test readout": "IC50", "Reported measurement": 1160}
{"Item smiles": "Cn1c(=O)n(-c2cccc(C(F)(F)F)c2)c2c3cc(-c4ccc(O)nc4)ccc3ncc21", "System under test": "Plasmodium falciparum", "Test readout": "IC50", "Reported measurement": 158}
{"Item smiles": "COc1ccc(-n2c(=O)n(C)c3cnc4ccc(-c5ccc(N)nc5)cc4c32)cc1", "System under test": "Plasmodium falciparum", "Test readout": "IC50", "Reported measurement": 47}
{"Item smiles": "Cn1c(=O)n(-c2cccc(C(F)(F)F)c2)c2c3cc(-c4ccc(C(N)=O)cc4)ccc3ncc21", "System under test": "Plasmodium falciparum", "Test readout": "IC50", "Reported measurement": 38}

Enquiry: Tell me the measured IC50 of Cn1c(=O)n(-c2cccc(C(F)(F)F)c2)c2c3cc(-c4ccc(O)cc4)ccc3ncc21 , please.
Return: 114

Enquiry: Tell me the measured IC50 of Cn1c(=O)n(-c2cccc(C(F)(F)F)c2)c2c3cc(-c4ccccc4)ccc3ncc21 , please.
Return: 442

Enquiry: Tell me the measured IC50 of Cc1ccc(-c2ccc3ncc4[nH]c(=O)n(-c5cccc(C(F)(F)F)c5)c4c3c2)cn1 , please.
Return: 180

Enquiry: Tell me the measured IC50 of CCn1c(=O)n(-c2cccc(C(F)(F)F)c2)c2c3cc(-c4ccc(N)nc4)ccc3ncc21 , please.
Return: 183

Enquiry: Tell me the measured IC50 of NC(=O)c1ccc(-c2ccc3ncc4[nH]c(=O)n(-c5cccc(C(F)(F)F)c5)c4c3c2)cc1 , please.
Return: 109

Taken from ChEMBL document CHEMBL3797182.
